molecular target: Ribosomal protein S6 kinase alpha-6 (Homo sapiens)
Sequence (Q9UK32 whole entry): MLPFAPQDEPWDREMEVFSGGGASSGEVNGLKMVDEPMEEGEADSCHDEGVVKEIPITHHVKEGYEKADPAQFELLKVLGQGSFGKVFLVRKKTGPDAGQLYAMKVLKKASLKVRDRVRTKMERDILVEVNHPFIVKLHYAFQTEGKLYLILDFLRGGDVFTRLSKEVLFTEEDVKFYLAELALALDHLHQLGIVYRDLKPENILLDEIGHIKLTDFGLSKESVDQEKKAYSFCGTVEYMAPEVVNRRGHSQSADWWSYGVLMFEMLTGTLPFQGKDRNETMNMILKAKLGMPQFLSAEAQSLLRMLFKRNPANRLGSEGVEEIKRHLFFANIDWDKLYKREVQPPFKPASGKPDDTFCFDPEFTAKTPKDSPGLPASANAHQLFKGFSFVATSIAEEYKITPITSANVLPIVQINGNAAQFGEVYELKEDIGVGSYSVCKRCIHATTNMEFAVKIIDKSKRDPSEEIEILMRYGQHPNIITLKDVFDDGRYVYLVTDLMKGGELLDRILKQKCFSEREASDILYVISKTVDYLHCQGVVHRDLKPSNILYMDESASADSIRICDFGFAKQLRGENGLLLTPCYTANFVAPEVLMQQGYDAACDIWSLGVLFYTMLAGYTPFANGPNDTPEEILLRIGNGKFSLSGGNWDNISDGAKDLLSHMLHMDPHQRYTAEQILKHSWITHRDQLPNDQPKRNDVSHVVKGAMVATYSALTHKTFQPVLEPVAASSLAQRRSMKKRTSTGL
pIC50: −log10 of the molar value.
ENDPOINT NAME: pIC50

Enquiry: State its pIC50 on Ribosomal protein S6 kinase alpha-6 (Homo sapiens): `COc1ncc(F)cc1CNc1ccc(Cc2c[nH]c3ncc(C)cc23)c(F)n1`
Return: < 6.00

----------
target: Serine/threonine-protein kinase PAK 5 (Homo sapiens, UniProt Q9P286)
Sequence (Q9P286 whole entry): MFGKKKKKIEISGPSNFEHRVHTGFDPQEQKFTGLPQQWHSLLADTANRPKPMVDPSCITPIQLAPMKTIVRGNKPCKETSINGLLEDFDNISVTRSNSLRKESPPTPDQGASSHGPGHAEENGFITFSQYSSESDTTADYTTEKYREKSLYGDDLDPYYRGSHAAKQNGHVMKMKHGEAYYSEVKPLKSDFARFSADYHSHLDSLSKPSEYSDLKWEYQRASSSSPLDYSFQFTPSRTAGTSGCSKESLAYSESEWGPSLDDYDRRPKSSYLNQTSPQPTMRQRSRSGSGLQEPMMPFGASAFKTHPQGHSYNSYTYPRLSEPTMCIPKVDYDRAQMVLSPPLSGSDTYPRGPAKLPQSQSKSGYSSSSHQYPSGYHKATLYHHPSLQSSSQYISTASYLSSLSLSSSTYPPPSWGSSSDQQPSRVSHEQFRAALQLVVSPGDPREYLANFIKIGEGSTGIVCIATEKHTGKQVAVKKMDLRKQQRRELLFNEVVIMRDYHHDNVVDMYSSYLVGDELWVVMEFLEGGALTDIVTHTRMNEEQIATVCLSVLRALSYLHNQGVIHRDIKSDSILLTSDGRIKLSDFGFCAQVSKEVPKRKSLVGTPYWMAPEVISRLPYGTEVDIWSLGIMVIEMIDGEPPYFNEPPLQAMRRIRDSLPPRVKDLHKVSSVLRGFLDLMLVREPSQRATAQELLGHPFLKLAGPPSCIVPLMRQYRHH
ENDPOINT NAME: IC50

Enquiry: Item under review: COc1ncc(F)cc1CNc1ccc(Cc2c[nH]c3ncc(C)cc23)c(F)n1 [PLX-5622] . Reported IC50?
Return: > 1 µM

----------
target: Phosphorylase b kinase gamma catalytic chain, skeletal muscle/heart isoform (Homo sapiens); assay: Inhibition of PHKG1 (unknown origin)
Sequence (Q16816 whole entry, canonical isoform): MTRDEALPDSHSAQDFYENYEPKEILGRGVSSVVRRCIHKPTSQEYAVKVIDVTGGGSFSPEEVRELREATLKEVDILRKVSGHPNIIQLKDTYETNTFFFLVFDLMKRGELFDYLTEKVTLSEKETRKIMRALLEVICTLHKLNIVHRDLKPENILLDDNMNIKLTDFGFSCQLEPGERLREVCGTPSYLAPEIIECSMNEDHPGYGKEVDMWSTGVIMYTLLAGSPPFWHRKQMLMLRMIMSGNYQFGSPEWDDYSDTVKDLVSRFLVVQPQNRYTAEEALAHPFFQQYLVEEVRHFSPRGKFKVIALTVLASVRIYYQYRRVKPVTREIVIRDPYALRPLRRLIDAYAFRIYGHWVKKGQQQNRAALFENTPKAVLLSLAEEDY
pIC50: −log10 of the molar value.
ENDPOINT NAME: pIC50

Enquiry: Item under review: COc1ncc(F)cc1CNc1ccc(Cc2c[nH]c3ncc(C)cc23)c(F)n1 [PLX-5622] . Reported pIC50?
Return: < 6.00

Values from ChEMBL document CHEMBL5649170
